Numbers sourced from PubChem BioAssay (NCI).

System: HCC-2998 colon
Experiment: NCI tumour cell line growth inhibition, 48 h
For each record, write down the corresponding TGI.

## Input Consider the compound shown here: `C=Cc1ccc(C)[n+](C[Si](C)(C)O[Si](C)(C)C)c1` What is its recorded TGI?
## Output > 100 µM

## Input Item: `Cc1csc2[n+]1C(=O)/C(=C\c1ccc([N+](=O)[O-])cc1)S2`
## Output 43.9 µM

## Input Item: `CCOC(=O)NC(=O)c1cn(CCOC(=O)CCCCCCCCC(=O)OCCn2cc(C(=O)NC(=O)OCC)c(=O)[nH]c2=O)c(=O)[nH]c1=O`
## Output > 100 µM

## Input Item: NC(=O)N/N=C(\CC1OC(=O)c2ccccc21)c1ccco1 (stereo not drawn)
## Output > 100 µM

## Input Item: `CCSc1[nH]c(NC(=S)NC(=O)c2ccccc2Cl)c(C(N)=O)c1C(N)=O`
## Output > 10 µM

## Input Item: `CN1CCc2[nH]c3ccccc3c2C1`
## Output > 100 µM

## Input Item: `COc1ccc2c(c1)c(=O)oc1cc(OC/C(C)=N\O)ccc12`
## Output > 100 µM

## Input Item: OC1(c2cccs2)c2cccc(Cl)c2C(O)(c2cccs2)c2c(Cl)cccc21 (stereo not drawn)
## Output > 100 µM

## Input Item: `CN(CCCn1c2c(c3ccccc3c1=O)C(=O)c1ccccc1-2)CCCn1c2c(c3ccccc3c1=O)C(=O)c1ccccc1-2`
## Output 9.46 µM

## Input Item: O=C1C(Cl)C2(CC(/C=C/c3ccccc3Cl)=NN2c2cccc(S(=O)(=O)O)c2)N1c1nc2ccccc2s1 (stereo not drawn)
## Output > 100 µM

## Input Item: `O=C1/C(=C/c2cccc(F)c2)CCCc2ccccc21`
## Output 27.8 µM

## Input Item: `COc1cc2ccc(/C=C\[N+](=O)[O-])cc2cc1OC`
## Output 13.6 µM

## Input Item: N#CC(NC12CC3CC(CC(C3)C1)C2)c1ccc2c(c1)OCO2 (stereo not drawn)
## Output > 100 µM

## Input Item: `CC(=O)C(=C(c1ccccc1)c1ccccc1)c1ccccc1`
## Output > 100 µM

## Input Item: `COc1ccc2nc3cccc([N+](=O)[O-])c3c(NCCCCCC(=O)O)c2c1`
## Output 2.5 µM

## Input Item: `C(#Cc1ccccc1C#Cc1cccs1)c1cccs1`
## Output 65.2 µM

## Input Item: CC(=O)OCC1OC(n2cnc(C(N)=S)c2N)C(OC(C)=O)C1OC(C)=O (stereo not drawn)
## Output > 100 µM

## Input Item: `NN(CC(=O)O)CC(=O)O`
## Output > 100 µM

## Input Item: `COC(=O)[C@@H]1CN(C(C)=O)C(=O)N1`
## Output > 100 µM

## Input Item: `CNS(=O)(=O)NN(C)S(=O)(=O)c1ccccc1`
## Output > 100 µM

## Input Item: CCOc1cc(NC(C)=O)ccc1C(=O)NN1C(=O)C(Cl)C1c1ccccc1 (stereo not drawn)
## Output 32.3 µM

## Input Item: CN1CCOC(c2ccc(Cl)cc2)O1 (stereo not drawn)
## Output > 100 µM

## Input Item: `C=C(C)C(=O)O[C@H]1CC(=C)[C@@H]2C[C@H](O)[C@](O)(CCl)[C@@H]2[C@H]2OC(=O)C(=C)[C@@H]21`
## Output 32.4 µM
